# Tested on: 885512-296-R-J2-PDC complex spheroid viability;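 note: spheroids exposed to the compounds for one week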
# experiment: Anticancer human tumor 885512-296-R-J2-PDC patient-derived breast carcinoma cell line growth inhibition [GQUAD]; active = viability on the fitted dose curve at most 10% of control; inactive = the rest
# condition details: second compound 1 µM; first compound 1 µM
# Source text: DNA G-quadruplex Stabilizer Agents in Combinations in Complex Spheroids A high-throughput screen of multi-cell type tumor spheroids was designed to identify active combinations of DNA G-quadruplex stabilizer agents and targeted small molecules. […] Compounds. […] If the clinical Cmax for an agent had not been determined, the highest concentration tested was 10 microM. […]
Please reply with one of these outcomes: active, inactive

INSERT INTO assay_data (compound, target_system, assigned_category) VALUES
  ('CCCS(=O)(=O)Nc1ccc(F)c(C(=O)c2c[nH]c3ncc(-c4ccc(Cl)cc4)cc23)c1F + CN(C)c1ccc(Nc2c3ccc(NC(=O)CCN4CCCC4)cc3nc3cc(NC(=O)CCN4CCCC4)ccc23)cc1', '885512-296-R-J2-PDC complex spheroid viability', 'inactive'),
  ('CC1COCCN1c1cc(C2(S(C)(=N)=O)CC2)nc(-c2ccnc3[nH]ccc23)n1 (centres undefined) + CN(C)c1ccc(Nc2c3ccc(NC(=O)CCN4CCCC4)cc3nc3cc(NC(=O)CCN4CCCC4)ccc23)cc1', '885512-296-R-J2-PDC complex spheroid viability', 'inactive'),
  ('CC(C)n1c(=O)n(C)c2cnc3cc(F)c(-c4ccc(OCCCN5CCCCC5)nc4)cc3c21 + CN(C)c1ccc(Nc2c3ccc(NC(=O)CCN4CCCC4)cc3nc3cc(NC(=O)CCN4CCCC4)ccc23)cc1', '885512-296-R-J2-PDC complex spheroid viability', 'inactive'),
  ('COc1cccc2c1C(=O)c1c(O)c3c(c(O)c1C2=O)CC(O)(C(=O)CO)CC3OC1CC(N)C(O)C(C)O1 (centres undefined) + Cc1cnc(CNC(=O)c2c(=O)c3ccc(N4CCCN(C)CC4)nc3n3c2sc2ccccc23)cn1', '885512-296-R-J2-PDC complex spheroid viability', 'active'),
  ('C#Cc1c(F)ccc2cc(O)cc(-c3ncc4c(N5CC6CCC(C5)N6)nc(OCC56CCCN5CC(F)C6)nc4c3F)c12 (centres undefined) + CN(C)c1ccc(Nc2c3ccc(NC(=O)CCN4CCCC4)cc3nc3cc(NC(=O)CCN4CCCC4)ccc23)cc1', '885512-296-R-J2-PDC complex spheroid viability', 'inactive');

Prompt line: # fetch the recorded call for CCCS(=O)(=O)Nc1ccc(F)c(C(=O)c2c[nH]c3ncc(-c4ccc(Cl)cc4)cc23)c1F + Cc1cnc(CNC(=O)c2c(=O)c3ccc(N4CCCN(C)CC4)nc3n3c2sc2ccccc23)cn1 here
Response line: inactive
